- tested-system: recombinant DYRK1A kinase (Homo sapiens (Human), UniProt Q13627)
- test-name: DYRK1A kinase assay (Ser/Thr 18 peptide Z-lyte FRET assay)
- experimental-conditions: recombinant DYRK1A 0.25 µg/mL, ATP 15 µM, Ser/Thr peptide 18 4 µM, one hour at room temperature; table head prints EC50, method says IC50
Response field label takes y when EC50 is strictly below 9 nM and n in all other cases.

compound	group-label
CO[C@H]1CC[C@@H](Nc2ncc3c(-c4ccc5nccnc5c4)ccn3n2)CC1 [Compound 1395]	n
Cc1nc2ccc(-c3ccn4nc(NC5CCC(F)(F)CC5)ncc34)nc2n1CC(F)F [Compound 1108]	y
Cc1nc2ncc(-c3ccn4nc(N[C@H]5CC[C@@H](OC(F)(F)F)CC5)ncc34)nc2n1CC(F)F [Compound 1970]	y

Please find the next compound below.
Quick check: EC50 of FC(F)(F)CCNc1ncc2c(-c3cnc4nccn4c3)ccn2n1 [Compound 220] under 9 nM?
n

----------
- tested-system: recombinant DYRK1A kinase (Homo sapiens (Human))
- test-name: DYRK1A kinase assay (Ser/Thr 18 peptide Z-lyte FRET assay)
- experimental-conditions: recombinant DYRK1A 0.25 µg/mL, ATP 15 µM, Ser/Thr peptide 18 4 µM, one hour at room temperature; table head prints EC50, method says IC50
- Experimental: Representative compounds were screened using the assay procedure for DYRK1A kinase activity as described below. Each compound was dissolved in DMSO as a 10 mM stock and used to prepare compound source plates. […] The Emission ratio (Em) was calculated as a ratio of the coumarin (C) emission signal (at 445 nm)/Fluorescein (F) emission signal (at 520 nm). […]
A collection of compounds and their measured EC50
// units = nM; emit number, no label

Reported EC50 for recombinant DYRK1A kinase (Homo sapiens (Human)), given CC(C)(F)CNc1ncc2c(-c3ccc4ncccc4c3)ccn2n1 ?
15

Form field: EC50 recorded for CO[C@H]1C[C@@H](Nc2ncc3c(-c4cnc5nccn5c4)ccn3n2)C1 with recombinant DYRK1A kinase (Homo sapiens (Human)) (enter value)
6

Notebook entry, recombinant DYRK1A kinase (Homo sapiens (Human)) assay: EC50 of CC(C)(F)CNc1ncc2c(-c3ccc4nccn4c3)ccn2n1 = ?
23

Hello, I am looking for reported EC50 with recombinant DYRK1A kinase (Homo sapiens (Human)) for CC(C)(CNc1ncc2c(-c3cnc4nccn4c3)ccn2n1)C(F)(F)F . Could you help?
29

Given the entry C[C@]1(O)CC[C@@H](Nc2ncc3c(-c4cnc5nccn5c4)ccn3n2)CC1 , what EC50 was observed with recombinant DYRK1A kinase (Homo sapiens (Human))?
10

Record CC(C)(F)CNc1ncc2c(-c3cnc4nccn4c3)ccn2n1 : what is its EC50 with recombinant DYRK1A kinase (Homo sapiens (Human))?
12

Notebook: pull reported EC50 for recombinant DYRK1A kinase (Homo sapiens (Human)), entry Cc1nc2ccc(-c3ccn4nc(NCC(C)(C)O)ncc34)nc2n1CC(F)F
8

Report EC50 for C[C@]1(O)CC[C@H](Nc2ncc3c(-c4ccc5nccn5c4)ccn3n2)CC1 tested on recombinant DYRK1A kinase (Homo sapiens (Human)).
10

----------
- tested-system: recombinant DYRK1A kinase (Homo sapiens (Human), UniProt Q13627)
- test-name: DYRK1A kinase assay (Ser/Thr 18 peptide Z-lyte FRET assay)
- experimental-conditions: recombinant DYRK1A 0.25 µg/mL, ATP 15 µM, Ser/Thr peptide 18 4 µM, one hour at room temperature; table head prints EC50, method says IC50
Reported pEC50 by item:
Remember the convention: pEC50 equals -log10 of concentration in molar.

// lookup pEC50 for c1cn2cc(-c3ccn4nc(NCC5CC5)ncc34)ccc2n1
7.32

Looking for the measured pEC50 of Cc1nc2ncc(-c3ccn4nc(N[C@H]5CCN(C)C[C@H]5F)ncc34)cc2n1CC(F)F , can you help?
7.51

Which pEC50 value is on record for Cc1nc2ccc(-c3ccn4nc(NC5CCN(C(=O)C(C)C)CC5)ncc34)nc2n1CC(F)F ?
8.10

----------
Measured pEC50 values are reported for all entries that follow.
- tested-system: recombinant DYRK1A kinase (Homo sapiens (Human))
- test-name: DYRK1A kinase assay (Ser/Thr 18 peptide Z-lyte FRET assay)
- Assay type: biochemical
- experimental-conditions: recombinant DYRK1A 0.25 µg/mL, ATP 15 µM, Ser/Thr peptide 18 4 µM, one hour at room temperature; table head prints EC50, method says IC50
- Experimental: Representative compounds were screened using the assay procedure for DYRK1A kinase activity as described below. Each compound was dissolved in DMSO as a 10 mM stock and used to prepare compound source plates. […] The Emission ratio (Em) was calculated as a ratio of the coumarin (C) emission signal (at 445 nm)/Fluorescein (F) emission signal (at 520 nm). […]
In plain terms, pEC50 is the concentration in mol/L turned into minus its base-10 logarithm.

Previously resolved entries follow.
Cc1nc2ccc(-c3ccn4nc(N[C@H]5CC[C@@](C)(O)CC5)ncc34)nc2n1CC(C)(C)C#N 7.80
COC[C@H]1C[C@H](Nc2ncc3c(-c4ccc5nccnc5c4)ccn3n2)C1 8.10

If you can, please state the reported pEC50 value of Cc1nc2ccc(-c3ccn4nc(NC5CCNCC5)ncc34)nc2n1CC(F)F .
8.30

Which measured pEC50 value corresponds to CC(C)CN1CC2(CC(Nc3ncc4c(-c5ccc6ncccc6c5)ccn4n3)C2)C1 ?
8.30

----------
- System: Tau phosphorylation at Thr212 (pThr212) in HEK293T cells transfected with DYRK1A and MAPT
- test-name: phosphoTau (Thr212) AlphaLISA tau phosphorylation cell assay
- Assay type: cell-based
- experimental-conditions: HEK-293T, HEK293T cells transiently transfected with human DYRK1A and MAPT, compound treatment 18-24 hours, read-out: pTau (Thr212) EC50
- Method: Representative compounds were screened using the assay procedure for tau phosphorylation activity described below. HEK293T cells (ATCC, CRL3216) cultured in DMEM (Thermo Fisher Scientific, 10566024) supplemented with 10% FBS (Corning, 35-011-CV) and Penicillin/Streptomycin (Thermo Fisher Scientific, 15140163) were seeded in a 75 cm^2 flask at 8.1 × 10^6 cells/flask. […]
Listing: log10(EC50) of selected compounds
Field: value | Transform: log10 | Quantity: EC50 | Unit: nM

Observe how each entry below is paired with its result.
compound	log10(EC50)
Cc1nc2ccc(-c3ccn4nc(NCC(C)(C)F)ncc34)nc2n1CC(F)F [Compound 1068]	2.20
CC(C)(F)CNc1ncc2c(-c3cnc4nccn4c3)ccn2n1 [Compound 216]	2.66
Cc1nc2ncc(-c3ccn4nc(NCC(C)(C)F)ncc34)cc2n1C(C)C [Compound 571]	2.86

Quick one: log10(EC50) for N[C@H]1CC[C@@H](Nc2ncc3c(-c4ccc5ncccc5c4)ccn3n2)CC1 [Compound 1332] ?
2.72

Requested field: log10(EC50). Item: CO[C@H]1CC[C@@H](Nc2ncc3c(-c4ccc5nccnc5c4)ccn3n2)CC1 [Compound 1395]
2.58

Recorded log10(EC50) for Cc1nc2ccc(-c3ccn4nc(NC5CCC(F)(F)CC5)ncc34)nc2n1CC(F)F [Compound 1108] , please?
2.10

Which value of log10(EC50) has been reported for CC(C)(F)CNc1ncc2c(-c3ccc4nccn4c3)ccn2n1 [Compound 3] in the records?
3.26

# lookup: log10(EC50) of FC1(F)CCC(Nc2ncc3c(-c4ccc5nccn5c4)ccn3n2)CC1 [Compound 43]
2.70

Name the recorded log10(EC50) for FC1(CNc2ncc3c(-c4cnc5nccn5c4)ccn3n2)COC1 [Compound 228] .
2.47

Any idea what its log10(EC50) is? The compound is COCCn1c(C)nc2ccc(-c3ccn4nc(NC5CCC(F)(F)CC5)ncc34)nc21 [Compound 1179]
2.67

Please look up its log10(EC50): C[C@]1(O)CC[C@@H](Nc2ncc3c(-c4ccc5nccnc5c4)ccn3n2)CC1 [Compound 1394]
2.85

Give its log10(EC50) value. Item: Cc1nc2ccc(-c3ccn4nc(NC5CCC(F)(F)CC5)ncc34)nc2n1CCF [Compound 1037]
2.61

What does the data say about its log10(EC50)? Entry: O[C@H]1C[C@@H](Nc2ncc3c(-c4ccc5nccnc5c4)ccn3n2)C1 [Compound 1724]
2.48

----------
- tested-system: recombinant DYRK1A kinase (Homo sapiens (Human))
- test-name: DYRK1A kinase assay (Ser/Thr 18 peptide Z-lyte FRET assay)
- Type: biochemical
- experimental-conditions: recombinant DYRK1A 0.25 µg/mL, ATP 15 µM, Ser/Thr peptide 18 4 µM, one hour at room temperature; table head prints EC50, method says IC50
measurement-name: pEC50
Note on pEC50: it is the negative log10 of concentration, concentration in mol/L.

// solved cases for pEC50 follow
compound	pEC50
Cc1nc2ccc(-c3ccn4nc(N[C@@H]5CCOC[C@H]5F)ncc34)nc2n1CC(F)F [Compound 1912]	8.15
CN(C)[C@H]1CC[C@@H](Nc2ncc3c(-c4ccc5ncccc5c4)ccn3n2)CC1 [Compound 1336]	7.60
COCCO[C@H]1C[C@@H](Nc2ncc3c(-c4ccc5ncccc5c4)ccn3n2)C1 [Compound 1309]	8.52
Cc1nc2c(F)cc(-c3ccn4nc(NCC(C)(C)F)ncc34)cc2n1C(C)C [Compound 500]	7.36

Using the record for Cc1cnc2ncc(-c3ccn4nc(NCC(C)(C)F)ncc34)cn12 [Compound 358] , report its pEC50.
7.60

Cited source for all entries: patent US20230312605A1
